molecular target: T1, human VEGF-A residues 27-191 of Accession #AAV38412 (human, UniProt P15692 27-191); test: BIAcore SPR, KD WT/KD mutant
T1 construct: range 27-191
T1 sequence (P15692 other isoform, or with tags, fused parts or gaps limits assumed): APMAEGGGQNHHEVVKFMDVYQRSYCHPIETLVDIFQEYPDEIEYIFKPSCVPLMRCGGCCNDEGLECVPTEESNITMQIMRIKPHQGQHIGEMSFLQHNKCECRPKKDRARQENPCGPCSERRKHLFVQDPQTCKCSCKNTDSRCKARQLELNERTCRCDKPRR

[
  {
    "BINDER": "T30 W (anti-VEGF IgG) (antibody, V domains shown, copies: 2 + 2) VH: EVQLVESGGGLVQPGGSLRLSCAASGYTFWNYGMNWVRQAPGKGLEWVGWINTYTGEPTYAADFKRRFTFSLDTSKSTAYLQMNSLRAEDTAVYYCAKYPHYYGSSHWYFDVWGQGTLVTVSS VL: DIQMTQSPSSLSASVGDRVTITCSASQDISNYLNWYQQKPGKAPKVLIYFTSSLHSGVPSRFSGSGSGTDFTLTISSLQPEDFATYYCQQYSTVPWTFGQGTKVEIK",
    "affinity improvement, fold": 1.6
  },
  {
    "BINDER": "93 (antibody, human IgG1, V domains shown) VH: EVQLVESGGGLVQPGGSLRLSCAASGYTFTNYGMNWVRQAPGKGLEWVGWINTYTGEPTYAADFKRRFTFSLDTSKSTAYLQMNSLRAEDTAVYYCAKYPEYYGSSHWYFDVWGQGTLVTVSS VL: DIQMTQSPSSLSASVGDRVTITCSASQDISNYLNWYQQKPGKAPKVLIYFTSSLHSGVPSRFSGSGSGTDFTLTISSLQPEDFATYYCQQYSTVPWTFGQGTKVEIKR",
    "affinity improvement, fold": 0.3
  },
  {
    "BINDER": "T28 Y (anti-VEGF IgG) (antibody, V domains shown, copies: 2 + 2) VH: EVQLVESGGGLVQPGGSLRLSCAASGYYFTNYGMNWVRQAPGKGLEWVGWINTYTGEPTYAADFKRRFTFSLDTSKSTAYLQMNSLRAEDTAVYYCAKYPHYYGSSHWYFDVWGQGTLVTVSS VL: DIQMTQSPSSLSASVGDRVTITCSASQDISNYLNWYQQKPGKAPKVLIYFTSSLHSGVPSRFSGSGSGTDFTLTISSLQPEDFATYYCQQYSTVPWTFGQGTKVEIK",
    "affinity improvement, fold": 1
  },
  {
    "BINDER": "bevacizumab variant H97Y (IgG format) (antibody, name in Kabat numbering, V domains shown, IgG format; also called H97Y substitution) VH: EVQLVESGGGLVQPGGSLRLSCAASGYTFTNYGMNWVRQAPGKGLEWVGWINTYTGEPTYAADFKRRFTFSLDTSKSTAYLQMNSLRAEDTAVYYCAKYPYYYGSSHWYFDVWGQGTLVTVSS VL: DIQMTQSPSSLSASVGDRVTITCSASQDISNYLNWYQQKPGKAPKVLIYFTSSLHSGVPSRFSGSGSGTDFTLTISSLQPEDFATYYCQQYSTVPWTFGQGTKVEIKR",
    "affinity improvement, fold": 1.8
  },
  {
    "BINDER": "S100a A (anti-VEGF IgG) (antibody, V domains shown, copies: 2 + 2) VH: EVQLVESGGGLVQPGGSLRLSCAASGYTFTNYGMNWVRQAPGKGLEWVGWINTYTGEPTYAADFKRRFTFSLDTSKSTAYLQMNSLRAEDTAVYYCAKYPHYYGASHWYFDVWGQGTLVTVSS VL: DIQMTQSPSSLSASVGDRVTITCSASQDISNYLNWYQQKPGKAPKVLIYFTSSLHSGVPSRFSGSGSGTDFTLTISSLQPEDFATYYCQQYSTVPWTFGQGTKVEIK",
    "affinity improvement, fold": 1.3
  }
]
